assay_method_text: In vivo pharmacokinetics of I-28 and its metabolite I-45 in mice (i.v. and p.o.)
Set-up: species or system Male C57 BL/6 mice
assay_conditions: male, C57 BL/6, iv; i.v., I-28 2.2 mg/kg, I-28 in mouse plasma, n = 2; read-out: VSS
quantity_kind: Vd (L/kg)
One number for each entry, in L/kg.

Input line: Report Vd for `[2H]C([2H])([2H])N(C([2H])([2H])[2H])C([2H])([2H])C([2H])([2H])c1c[nH]c2cccc(OC(=O)CCCCCCC/C=C\C/C=C\CCCCC)c12`
Output line: 17

====

assay_method_text: Liver microsomes stability, mouse
assay_conditions: male, mouse, microsomes
quantity_kind: half-life at 2 μM (min)
Give bare numbers, in min.

> print(dat)
                            smiles.notation  quantitative.result
1  [2H]C([2H])([2H])N(C([2H])([2H])[2H])C([2H])([2H])C([2H])([2H])c1c[nH]c2cccc(O)c12                  245
2  [2H]C([2H])([2H])N(C([2H])([2H])[2H])C([2H])([2H])C([2H])([2H])c1c[nH]c2cccc(OCc3ccccc3)c12                 51.7

Input line: Report half-life at 2 μM for `[2H]C([2H])([2H])N(C([2H])([2H])[2H])C([2H])([2H])C([2H])([2H])c1c[nH]c2cccc(OC(=O)CCCCCCC/C=C\C/C=C\CCCCC)c12`
Output line: 16.6

====

assay_method_text: In vivo pharmacokinetics of I-28 and its metabolite I-45 in mice (i.v. and p.o.)
Set-up: species or system Male C57 BL/6 mice
assay_conditions: male, C57 BL/6, mouse, plasma, iv, 1 mg/kg
quantity_kind: C0 (ng/mL)
One number for each entry, in ng/mL.

Input line: Report C0 for `[2H]C([2H])([2H])N(C([2H])([2H])[2H])C([2H])([2H])C([2H])([2H])c1c[nH]c2cccc(O)c12`
Output line: 566

====

assay_method_text: In vivo pharmacokinetics of I-28 and its metabolite I-45 in mice (i.v. and p.o.)
Parameters: species or system Male C57 BL/6 mice
assay_conditions: male, C57 BL/6, po; p.o., I-28 22 mg/kg, I-28 in mouse plasma
quantity_kind: Cmax (ng/mL)
Give bare numbers, in ng/mL.

Input line: Report Cmax for `[2H]C([2H])([2H])N(C([2H])([2H])[2H])C([2H])([2H])C([2H])([2H])c1c[nH]c2cccc(OC(=O)CCCCCCC/C=C\C/C=C\CCCCC)c12`
Output line: 1.06

====

Entries below carry reported IC50 on human 5-HT2A receptor (Homo sapiens (Human)).
Answers are plain numbers, in nM.

> print(dat)
                            smiles.notation                                 tested.on  quantity.kind  value.unit  quantitative.result
1  [2H]C([2H])([2H])N(C([2H])([2H])[2H])C([2H])([2H])C([2H])([2H])c1c[nH]c2cccc(OC(=O)CCCCCCC/C=C\C/C=C\CCCCC)c12  human 5-HT2A receptor (Homo sapiens (Human))           IC50          nM                  516

Input line: Report IC50 for `[2H]C([2H])([2H])N(C([2H])([2H])[2H])C([2H])([2H])C([2H])([2H])c1c[nH]c2cccc(OCc3ccccc3)c12`
Output line: 106

====

assay_method_text: Liver microsomes stability, human
assay_conditions: with NADPH, 2 μM, 0.5 mg/mL microsomes
Assignment: determine reported Remaining Percentage (%) after 60 min Human for the given molecules.
Numbers only, in %.

molecule	value_unit	quantitative_result
[2H]C([2H])([2H])N(C([2H])([2H])[2H])C([2H])([2H])C([2H])([2H])c1c[nH]c2cccc(O)c12 [Compound I-45]	%	87.08
[2H]C([2H])([2H])N(C([2H])([2H])[2H])C([2H])([2H])C([2H])([2H])c1c[nH]c2cccc(OCc3ccccc3)c12 [Compound I-46]	%	58.94

Please supply Remaining Percentage (%) after 60 min Human for each of the following items, keeping them in order.
1. CN(C)CCc1c[nH]c2cccc(O)c12 [Psilocin, 4-hydroxy-N,N-dimethyltryptamine, reference compound]
2. [2H]C([2H])([2H])N(C([2H])([2H])[2H])C([2H])([2H])C([2H])([2H])c1c[nH]c2cccc(OC(=O)CCCCCCC/C=C\C/C=C\CCCCC)c12 [Compound I-28]

Output line:
1: 70.16; 2: 73.27
